The reported measurements were obtained from ChEMBL document CHEMBL2417393.

# methodNotes: Bioavailability in rat at 5 mg/kg, iv
# Type: ADME, organism-based
# details: in vivo
Kindly state bioavailability for each of the entries shown.
Answers are plain numbers, in %.

# givenSmiles, reported
measured = [
    ("CC(=O)Nc1cn2cc(-c3cnc(N)c(C(F)(F)F)c3)ccc2n1", 95),
]

Now for a further molecule.
Value lookup for bioavailability; key = CC(=O)Nc1nc2ccc(-c3ccc(N)nc3)cc2s1
57

###

# methodNotes: Clearance in rat microsomes
# Format: ADME, Microsome
measuredParameter: clearance (µL/min/mg)
Answers are plain numbers, in µL/min/mg.

# givenSmiles, reported
records = [
    ("CC(=O)Nc1cn2cc(-c3cnc(N)c(C(F)(F)F)c3)ccc2n1", 8),
    ("CC(=O)Nc1nc2ccc(-c3ccc(N)nc3)cc2s1", 4),
]

Quick one: clearance for CC(=O)Nc1nc2ccc(-c3cnc(N)c(C(F)(F)F)c3)cc2s1 ?
8
